- Tested on: CYPSE (Flatsedge)
- experiment.summary: Postemergence weed control under flooded paddy conditions
- Format: in vivo, Cyperus serotinus
- condition.summary: Rate 0.1250 kg/ha, postemergence weeds, rated 3 to 4 weeks after treatment
quantity.measured: Herbicidal rating CYPSE
I'd appreciate a reply containing only the number, no unit.

Use these answered entries as a reference point.
CC(C)C[C@@H](C(=O)O)N1C(=O)CSC1=Nc1cc(-n2c(=O)cc(C(F)(F)F)n(C)c2=O)c(F)cc1Cl [Compound 71] ... 3.0
CN1C(=O)C(CC(=O)OCCF)SC1=Nc1cc(-n2c(=O)cc(C(F)(F)F)n(C)c2=O)c(F)cc1Cl (stereo not shown) [Compound 93] ... 5.0

Please give the measured Herbicidal rating CYPSE for this compound: C=CCN1C(=O)C(CC(=O)NS(C)(=O)=O)SC1=Nc1cc(-n2c(=O)cc(C(F)(F)F)n(C)c2=O)c(F)cc1Cl (stereo not shown) [Compound 96]
0.0

Repeat with C[C@H](C(=O)O)N1C(=O)CSC1=Nc1cc(-n2c(=O)cc(C(F)(F)F)n(C)c2=O)c(F)cc1Cl [Compound 70]
0.0

----------
- Test system: GALAP (Galium)
- experiment.summary: Preemergence herbicidal evaluation
- Type: in vivo, Galium aparine
- condition.summary: rate 0.1250 kg/ha; rated 4-5 weeks after treatment
quantity.measured: Preemergence herbicidal rating GALAP

Use these answered entries as a reference point.
C=CCOC(=O)CC1SC(=Nc2cc(-n3c(=O)cc(C(F)(F)F)n(C)c3=O)c(F)cc2Cl)N(CC=C)C1=O (stereo not drawn) [Compound 65] ... 1.0
C[C@@H](C(=O)O)N1C(=O)CS/C1=N/c1cc(-n2c(=O)cc(C(F)(F)F)n(C)c2=O)c(F)cc1Cl [Compound 51] ... 7.0
COC(=O)COC(=O)CN1C(=O)CSC1=Nc1cc(-n2c(=O)cc(C(F)(F)F)n(C)c2=O)c(F)cc1Cl [Compound 108] ... 7.0
CC(C)S(=O)(=O)NC(=O)CC1SC(=Nc2cc(-n3c(=O)cc(C(F)(F)F)n(C)c3=O)c(F)cc2Cl)N(C)C1=O (stereo not drawn) [Compound 119] ... 0.0
CN1C(=O)C(CC(=O)O)SC1=Nc1cc(-n2c(=O)cc(C(F)(F)F)n(C)c2=O)c(F)cc1Cl (stereo not drawn) [Compound 63] ... 9.0
CCOC(=O)CN1C(=O)C(CC(=O)Nc2ccccc2)SC1=Nc1cc(-n2c(=O)cc(C(F)(F)F)n(C)c2=O)c(F)cc1Cl (stereo not drawn) [Compound 68] ... 0.0
CC(C)C[C@@H](C(=O)O)N1C(=O)CSC1=Nc1cc(-n2c(=O)cc(C(F)(F)F)n(C)c2=O)c(F)cc1Cl [Compound 71] ... 9.0
CCOC(=O)CN1C(=O)C(Cc2ccccc2OC)SC1=Nc1cc(-n2c(=O)cc(C(F)(F)F)n(C)c2=O)c(F)cc1Cl (stereo not drawn) [Compound 37] ... 0.0
CCOC(=O)CN1C(=O)C(CCO)S/C1=N/c1cc(-n2c(=O)cc(C(F)(F)F)n(C)c2=O)c(F)cc1Cl (stereo not drawn) [Compound 49] ... 7.0
CCOC(=O)CN1C(=O)CS(=O)(=O)C1=Nc1cc(-n2c(=O)cc(C(F)(F)F)n(C)c2=O)c(F)cc1Cl [Compound 46] ... 0.0

For the record CCOC(=O)CN1C(=O)C(C(=O)OC)SC1=Nc1cc(-n2c(=O)cc(C(F)(F)F)n(C)c2=O)c(F)cc1Cl (stereo not drawn) [Compound 128] , what value of Preemergence herbicidal rating GALAP is listed for GALAP (Galium)?
1.0

Repeat with Cn1c(C(F)(F)F)cc(=O)n(-c2cc(N=C3NC(=O)CS3)c(Cl)cc2F)c1=O [Compound 39]
6.0

----------
- System: CYPSE (Flatsedge)
- experiment.summary: Preemergence weed control under flooded paddy conditions
- Format: in vivo, Cyperus serotinus
- condition.summary: 0.0625 kg/ha, rated 3-4 weeks after treatment
quantity.measured: CYPSE herbicidal effect rating
I'd appreciate a reply containing only the number, no unit.

CCOC(=O)CN1C(=O)C(CC(=O)Nc2ccccc2)SC1=Nc1cc(-n2c(=O)cc(C(F)(F)F)n(C)c2=O)c(F)cc1Cl (stereo not drawn) ... 0.0

For the record CC(C)OC(=O)CC1SC(=Nc2cc(-n3c(=O)cc(C(F)(F)F)n(C)c3=O)c(F)cc2Cl)N(C)C1=O (stereo not drawn) , what value of CYPSE herbicidal effect rating is listed for CYPSE (Flatsedge)?
0.0

Repeat with CN1C(=O)C(CC(=O)Nc2ccccc2)SC1=Nc1cc(-n2c(=O)cc(C(F)(F)F)n(C)c2=O)c(F)cc1Cl (stereo not drawn)
0.0

----------
- System: ECHORC (Watergrass (Calif.))
- experiment.summary: Postemergence weed control under flooded paddy conditions
- Assay type: in vivo, Echinochloa oryzoides
- condition.summary: Rate 0.1250 kg/ha, postemergence weeds, rated 3 to 4 weeks after treatment
quantity.measured: Herbicidal rating ECHORC
I'd appreciate a reply containing only the number, no unit.

Please give the measured Herbicidal rating ECHORC for this compound: CN1C(=O)C(CC(=O)OCCF)SC1=Nc1cc(-n2c(=O)cc(C(F)(F)F)n(C)c2=O)c(F)cc1Cl (stereo not drawn) [Compound 93]
4.0

Repeat with C#CCOC(=O)CC1SC(=Nc2cc(-n3c(=O)cc(C(F)(F)F)n(C)c3=O)c(F)cc2Cl)N(CC=C)C1=O (stereo not drawn) [Compound 67]
5.0

Repeat with C=CCN1C(=O)C(CC(=O)NS(=O)(=O)CC)SC1=Nc1cc(-n2c(=O)cc(C(F)(F)F)n(C)c2=O)c(F)cc1Cl (stereo not drawn) [Compound 104]
6.0

Repeat with C=CCN1C(=O)C(CC(=O)NS(C)(=O)=O)SC1=Nc1cc(-n2c(=O)cc(C(F)(F)F)n(C)c2=O)c(F)cc1Cl (stereo not drawn) [Compound 96]
0.0

Repeat with CCOC(=O)CN1C(=O)C(CC(=O)Nc2ccccc2)SC1=Nc1cc(-n2c(=O)cc(C(F)(F)F)n(C)c2=O)c(F)cc1Cl (stereo not drawn) [Compound 68]
7.0

Repeat with CCOC(=O)CN1C(=O)C(CC(=O)NO)S/C1=N/c1cc(-n2c(=O)cc(C(F)(F)F)n(C)c2=O)c(F)cc1Cl (stereo not drawn) [Compound 98]
1.0

----------
Listing of entries alongside the reported Herbicidal rating SAGPY.
- Tested on: SAGPY (Arrowhead (Pygmaea))
- experiment.summary: Postemergence weed control under flooded paddy conditions
- Format: in vivo, Sagittaria pygmaea
- condition.summary: Rate 0.2500 kg/ha, postemergence weeds, rated 3 to 4 weeks after treatment
I'd appreciate a reply containing only the number, no unit.

Use these answered entries as a reference point.
CC(C)OC(=O)CC1SC(=Nc2cc(-n3c(=O)cc(C(F)(F)F)n(C)c3=O)c(F)cc2Cl)N(C)C1=O (stereo not drawn) [Compound 89] ... 9.0
C=CCOC(=O)CC1SC(=Nc2cc(-n3c(=O)cc(C(F)(F)F)n(C)c3=O)c(F)cc2Cl)N(CC=C)C1=O (stereo not drawn) [Compound 65] ... 7.0
C=CCN1C(=O)C(CC(=O)OC)SC1=Nc1cc(-n2c(=O)cc(C(F)(F)F)n(C)c2=O)c(F)cc1Cl (stereo not drawn) [Compound 64] ... 8.0
Cn1c(C(F)(F)F)cc(=O)n(-c2cc(/N=C3/SC(CC(=O)O)C(=O)N3CC(=O)O)c(Cl)cc2F)c1=O (stereo not drawn) [Compound 61] ... 0.0
CN1C(=O)C(CC(=O)O)SC1=Nc1cc(-n2c(=O)cc(C(F)(F)F)n(C)c2=O)c(F)cc1Cl (stereo not drawn) [Compound 63] ... 9.0

Now for a further compound.
Please give the measured Herbicidal rating SAGPY for this compound: CC(C)C[C@@H](C(=O)O)N1C(=O)CSC1=Nc1cc(-n2c(=O)cc(C(F)(F)F)n(C)c2=O)c(F)cc1Cl [Compound 71]
0.0

----------
Listing of entries alongside the reported Herbicidal rating CHEAL.
- Tested on: CHEAL (Lambsquarters, Common)
- experiment.summary: Postemergence herbicidal evaluation
- Assay type: in vivo, Chenopodium album
- condition.summary: postemergence, rate 0.0315 kg/ha
I'd appreciate a reply containing only the number, no unit.

Please give the measured Herbicidal rating CHEAL for this compound: `CC(C)OC(=O)CN1C(=O)CSC1=Nc1cc(-n2c(=O)cc(C(F)(F)F)n(C)c2=O)c(F)cc1Cl`
9.0

Repeat with COC(=O)C(C)OC(=O)CN1C(=O)CSC1=Nc1cc(-n2c(=O)cc(C(F)(F)F)n(C)c2=O)c(F)cc1Cl (stereo not shown)
5.0

Repeat with `C#CCOC(=O)CN1C(=O)CSC1=Nc1cc(-n2c(=O)cc(C(F)(F)F)n(C)c2=O)c(F)cc1Cl`
1.0

Repeat with CCOC(=O)CN1C(=O)C(Cc2ccccc2OCC(=O)O)S/C1=N/c1cc(-n2c(=O)cc(C(F)(F)F)n(C)c2=O)c(F)cc1Cl (stereo not shown)
4.0
